- test protocol: recombinant UMI read abundance after kanamycin selection (control-corrected) (log10(CPM+1)); higher = more efficient recombination; extreme values may be limits of the assay; sequences stand for … in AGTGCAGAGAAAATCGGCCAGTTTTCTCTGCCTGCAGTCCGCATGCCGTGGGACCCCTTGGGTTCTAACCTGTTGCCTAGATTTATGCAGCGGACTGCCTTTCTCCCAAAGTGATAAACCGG…AGGTTGGTTTCACT; site = the 11-nt donor

# query sequence, recombinant UMI read abundance (log10)
rows = [
    ("TTTGCTGCATGGACCGGTTTTCCCGGTAATCCGTATTTGTG (site TTGGCTGCTCA)", 0.0177),
    ("CGGCCCTCATGGACCGGTTTTCCCGGTAATCCGTATTTGCA (site CGGCCCTCTTG)", 3.02),
    ("CAATCGACATGGACCGGTTTTCCCGGTAATCCGTATTTGTT (site CGATCGACTAA)", 0.0271),
    ("ATAGGTACATGGACCGGTTTTCCCGGTAATCCGTATTTGAC (site CTAGGTACTGT)", 1.97),
    ("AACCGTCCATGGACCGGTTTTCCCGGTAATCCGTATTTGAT (site AACCGTGCTAT)", 0.0154),
    ("AATCATGCATGGACCGGTTTTCCCGGTAATCCGTATTTGGA (site AATTATGCTTC)", 0.636),
    ("TTGGAAACATGGACCGGTTTTCCCGGTAATCCGTATTTGCA (site TTGGAAACTTG)", 1.86),
    ("ACAGGATCATGGACCGGTTTTCCCGGTAATCCGTATTTGCC (site ACAGGATCTGG)", 2.27),
    ("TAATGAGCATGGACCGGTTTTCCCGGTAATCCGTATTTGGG (site TCATGAGCTCC)", 0.203),
]

----------
- test protocol: recombinant UMI read abundance after kanamycin selection (control-corrected) (log10(CPM+1)); higher = more efficient recombination; extreme values may be limits of the assay; sequences stand for … in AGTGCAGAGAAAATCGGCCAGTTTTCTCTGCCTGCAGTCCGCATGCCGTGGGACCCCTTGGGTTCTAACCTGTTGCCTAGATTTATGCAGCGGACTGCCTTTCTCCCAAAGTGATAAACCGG…AGGTTGGTTTCACT; site = the 11-nt donor
Measured recombinant UMI read abundance (log10) accompanies every entry in the list below.
measured parameter: recombinant UMI read abundance (log10)

# query sequence, measured parameter, observed result
measured = [
    ("TCTAGAACATGGACCGGTTTTCCCGGTAATCCGTATTTGAG (site ACTAGAACTCT)", "recombinant UMI read abundance (log10)", 0.00743),
    ("GATTTTCCATGGACCGGTTTTCCCGGTAATCCGTATTTGCT (site GATTTTCCTAG)", "recombinant UMI read abundance (log10)", 0),
    ("AGCTAGTCATGGACCGGTTTTCCCGGTAATCCGTATTTGAG (site AGCTAGTCTCT)", "recombinant UMI read abundance (log10)", 2.57),
    ("CGTTAGACATGGACCGGTTTTCCCGGTAATCCGTATTTGAC (site CGTTAGACTCT)", "recombinant UMI read abundance (log10)", 0.0193),
    ("GCCACGCCATGGACCGGTTTTCCCGGTAATCCGTATTTGGA (site GCCACGCCTTG)", "recombinant UMI read abundance (log10)", 0),
]

----------
- test protocol: recombinant barcode read abundance after kanamycin selection (control-corrected) (log10(CPM+1)); higher = more efficient recombination; sequences stand for … in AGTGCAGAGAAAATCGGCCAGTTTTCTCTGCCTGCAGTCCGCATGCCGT…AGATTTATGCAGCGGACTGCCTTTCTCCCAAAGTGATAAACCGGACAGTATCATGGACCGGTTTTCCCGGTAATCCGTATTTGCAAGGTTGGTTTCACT; site = the 11-nt target
Measured recombinant barcode read abundance (log10) accompanies every entry in the list below.
measured parameter: recombinant barcode read abundance (log10)

# query sequence, observed result
data = [
    ("GTGATGTCTTGGGTTCTAACCTGTTGCCT (site GAGATGTCTAG)", 0.701),
    ("GAACTGTCTTGGGTTCTAACCTGTTGCCA (site GTACTCTCTTG)", 0.0913),
    ("CAATCGTCTTGGGTTCTAACCTGTTGCGG (site CAGCCGTCTCC)", 0.166),
    ("GATGGACCTTGGGTTCTAACCTGTTGCTA (site GATGGACCTTA)", 2.39),
    ("GGGACGACTTGGGTTCTAACCTGTTGCTT (site GGGACGACTAA)", 1.04),
    ("GGCCCCTCTTGGGTTCTAACCTGTTGCCG (site CGCGCCTCTCG)", 0.368),
    ("GCCAACCCTTGGGTTCTAACCTGTTGCAT (site GCCAACCCTAT)", 0),
    ("TGTTACCCTTGGGTTCTAACCTGTTGCCT (site TGTTACCCTAG)", 0.434),
    ("TCACGTCCTTGGGTTCTAACCTGTTGCCT (site TCACGTCCTAG)", 0.456),
    ("GAAGAGGCTTGGGTTCTAACCTGTTGCCA (site GAAGAGGCTTG)", 0.536),
    ("AATTGTCCTTGGGTTCTAACCTGTTGCAT (site AATTGTCCTAT)", 0.249),
    ("AGATTCGCTTGGGTTCTAACCTGTTGCCG (site AGATTCGCTCG)", 0.941),
    ("CCGCTACCTTGGGTTCTAACCTGTTGCGG (site TCGCTAGCTCC)", 0.0965),
    ("AGACCCTCTTGGGTTCTAACCTGTTGCCT (site AGACCCTCTAG)", 2.91),
    ("TTGGTCCCTTGGGTTCTAACCTGTTGCCT (site TTGGTGCCTAG)", 0.0514),
    ("GAGTTACCTTGGGTTCTAACCTGTTGCGT (site GAGTTACCTAC)", 2.6),
    ("GCCAGGGCTTGGGTTCTAACCTGTTGCCG (site GCCCGGGCTCG)", 0.264),
    ("TAGTACTCTTGGGTTCTAACCTGTTGCTA (site TAGTACTCTGA)", 0.164),
    ("TCGAGAGCTTGGGTTCTAACCTGTTGCTA (site TCGAGAGCTTA)", 0.446),
    ("CCTGGCACTTGGGTTCTAACCTGTTGCAG (site CCTGAGACTCT)", 0),
    ("CGGAGTCCTTGGGTTCTAACCTGTTGCTA (site CGGCGTCCTTA)", 0.113),
]

----------
Measured recombinant UMI read abundance (log10) accompanies every entry in the list below.
- test protocol: recombinant UMI read abundance after kanamycin selection (control-corrected) (log10(CPM+1)); higher = more efficient recombination; extreme values may be limits of the assay; sequences stand for … in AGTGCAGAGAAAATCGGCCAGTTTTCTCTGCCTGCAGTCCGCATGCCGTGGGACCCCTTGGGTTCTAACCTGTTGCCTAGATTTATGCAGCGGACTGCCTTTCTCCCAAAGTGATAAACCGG…AGGTTGGTTTCACT; site = the 11-nt donor

# query sequence, recombinant UMI read abundance (log10)
rows = [
    ("CTGTTAGCATGGACCGGTTTTCCCGGTAATCCGTATTTGTG (site CTGTTAGCTCA)", 2.07),
    ("GCGAAATCATGGACCGGTTTTCCCGGTAATCCGTATTTGCT (site GCGAAACCTAG)", 0),
    ("CGGAAGCCATGGACCGGTTTTCCCGGTAATCCGTATTTGTC (site CGGAAGCCTGA)", 0),
    ("GCTAAAGCATGGACCGGTTTTCCCGGTAATCCGTATTTGAT (site CCTAAAGCTAT)", 1.04),
    ("ATCCCAGCATGGACCGGTTTTCCCGGTAATCCGTATTTGAG (site ATCCCAGCTCT)", 0.952),
    ("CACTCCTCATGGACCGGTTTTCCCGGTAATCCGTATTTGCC (site CGCTCCTCTGG)", 1.95),
    ("CGCCGTGCATGGACCGGTTTTCCCGGTAATCCGTATTTGCT (site CGCCGTACTAG)", 1.29),
    ("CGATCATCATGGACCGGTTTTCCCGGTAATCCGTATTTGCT (site AGATCATCTAG)", 2.17),
    ("GGCGATACATGGACCGGTTTTCCCGGTAATCCGTATTTGCT (site GGCGATACTAG)", 1.5),
]

----------
Measured recombinant UMI read abundance (log10) accompanies every entry in the list below.
- test protocol: recombinant UMI read abundance after kanamycin selection (control-corrected) (log10(CPM+1)); higher = more efficient recombination; extreme values may be limits of the assay; sequences stand for … in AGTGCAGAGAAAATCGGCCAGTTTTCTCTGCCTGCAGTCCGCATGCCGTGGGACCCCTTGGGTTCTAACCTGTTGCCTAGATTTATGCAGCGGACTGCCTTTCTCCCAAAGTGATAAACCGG…AGGTTGGTTTCACT; site = the 11-nt donor

# query sequence, recombinant UMI read abundance (log10)
measured = [
    ("GGATACACATGGACCGGTTTTCCCGGTAATCCGTATTTGCC (site GGATACACTGG)", 2.97),
    ("TTCTAGGCATGGACCGGTTTTCCCGGTAATCCGTATTTGGT (site TGCTAGGCTAC)", 0.0112),
    ("GCTTAGTCATGGACCGGTTTTCCCGGTAATCCGTATTTGTT (site GCTTAGTCTAA)", 2.37),
    ("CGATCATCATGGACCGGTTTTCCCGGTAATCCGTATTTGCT (site CGATTAGCTAG)", 0.0161),
    ("GTTAGACCATGGACCGGTTTTCCCGGTAATCCGTATTTGGC (site GTTAGAACTGC)", 0),
    ("ACAAGTGCATGGACCGGTTTTCCCGGTAATCCGTATTTGGT (site ACCAGTGCTAC)", 0.897),
    ("GGCGTGGCATGGACCGGTTTTCCCGGTAATCCGTATTTGGT (site GGGGTGGCTAC)", 0.00519),
    ("AGTTAGGCATGGACCGGTTTTCCCGGTAATCCGTATTTGGA (site AGTTAGGCTTC)", 0.957),
    ("CTTAGAACATGGACCGGTTTTCCCGGTAATCCGTATTTGGC (site CTTAGAACTGC)", 1.4),
    ("ACATCCACATGGACCGGTTTTCCCGGTAATCCGTATTTGTG (site ACATCGACTCA)", 0.00941),
    ("GCATACTCATGGACCGGTTTTCCCGGTAATCCGTATTTGCA (site ACATACTCTTG)", 2.41),
    ("AAAGTTGCATGGACCGGTTTTCCCGGTAATCCGTATTTGAT (site AAAGTTGCTAT)", 2.62),
    ("AATGCGTCATGGACCGGTTTTCCCGGTAATCCGTATTTGAC (site AATGTGTCTGT)", 0.269),
    ("CAATTCCCATGGACCGGTTTTCCCGGTAATCCGTATTTGCG (site CAATTCCCTAG)", 1.26),
    ("ATGTATACATGGACCGGTTTTCCCGGTAATCCGTATTTGAC (site ATATATACTGT)", 2.59),
    ("GTCAATCCATGGACCGGTTTTCCCGGTAATCCGTATTTGAA (site GCCAATCCTTT)", 0.306),
    ("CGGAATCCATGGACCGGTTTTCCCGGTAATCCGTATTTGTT (site GGGAATCCTAT)", 0),
    ("AATGTAACATGGACCGGTTTTCCCGGTAATCCGTATTTGTT (site AATGTAACTAG)", 0.466),
    ("AGGTTCACATGGACCGGTTTTCCCGGTAATCCGTATTTGTG (site AGGTTCGCTCA)", 0.00639),
    ("CTTCACTCATGGACCGGTTTTCCCGGTAATCCGTATTTGTA (site CTTCTCTCTTA)", 0),
    ("GCTCGAGCATGGACCGGTTTTCCCGGTAATCCGTATTTGCA (site GCTCGAGCTTG)", 2.67),
    ("ACTGTAACATGGACCGGTTTTCCCGGTAATCCGTATTTGCT (site ATTGTAACTAG)", 1.55),
    ("GGCCACCCATGGACCGGTTTTCCCGGTAATCCGTATTTGTA (site GGCCACCCTAA)", 0.0187),
    ("TCCACCACATGGACCGGTTTTCCCGGTAATCCGTATTTGCG (site TCCACCGCTCG)", 0),
    ("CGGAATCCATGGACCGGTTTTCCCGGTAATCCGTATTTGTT (site TTGAATCCTAA)", 0.00378),
    ("CGTACATCATGGACCGGTTTTCCCGGTAATCCGTATTTGCT (site CGATCATCTAG)", 0),
    ("GGGAATACATGGACCGGTTTTCCCGGTAATCCGTATTTGAG (site GGGAATACTCT)", 1.35),
    ("AAGAAGCCATGGACCGGTTTTCCCGGTAATCCGTATTTGCA (site AGGAAGACTTG)", 0.00613),
    ("ACTTGTGCATGGACCGGTTTTCCCGGTAATCCGTATTTGGT (site ACTTGTGCTAC)", 1.18),
    ("CGCCCTACATGGACCGGTTTTCCCGGTAATCCGTATTTGAG (site CTCCCTACTCT)", 0.0151),
    ("AGATTTACATGGACCGGTTTTCCCGGTAATCCGTATTTGGA (site AGATTTACTTC)", 0.959),
    ("GATACGTCATGGACCGGTTTTCCCGGTAATCCGTATTTGTT (site GTTACGTCTAA)", 0.0167),
    ("CACTTCCCATGGACCGGTTTTCCCGGTAATCCGTATTTGCT (site CACTTCCCTAG)", 0.617),
    ("CCAGTTGCATGGACCGGTTTTCCCGGTAATCCGTATTTGAT (site CCAGCTGCTAT)", 0.249),
    ("GCACCGACATGGACCGGTTTTCCCGGTAATCCGTATTTGAA (site GCACCGACTTT)", 0.965),
    ("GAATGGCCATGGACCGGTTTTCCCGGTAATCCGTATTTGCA (site GAAGGGCCTTG)", 0),
]
